B1: Pistol ribozyme (parent)
chain: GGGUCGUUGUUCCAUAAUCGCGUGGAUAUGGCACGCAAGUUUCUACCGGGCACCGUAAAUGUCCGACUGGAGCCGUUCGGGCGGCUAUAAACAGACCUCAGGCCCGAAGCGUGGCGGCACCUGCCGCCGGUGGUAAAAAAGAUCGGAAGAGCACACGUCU

# Variants of: B1
# protocol-text: aptazyme ON/OFF ratio, guanine; higher = stronger switching; co-transcriptional cleavage with and without guanine
The variants listed here are annotated with their aptazyme ON/OFF ratio.
Write the number on its own, no unit after it.

Worked cases, aptazyme ON/OFF ratio given:
1. U7A G9U U10C U11C C12U C13G = 1.02
2. U7C U8G G9C U10A U11A C13U = 1.2
3. U7A G9U U10C C12A C13U = 1.16
4. U8C G9U U10G U11C C12G C13U = 1.2
5. U7C U8G G9C U10C U11G C12A C13G = 1.06
6. U7C G9U U11C = 1.12
7. U7C U8A G9C U10A U11C C13U = 1.02
8. U7C U8G U10A C12U C13U = 1.33

Give its aptazyme ON/OFF ratio value. Item: U7A U8C G9A U11A C12A C13G 1.09

Try this variant too: U8A G9A U10C U11C C12G C13U 1.07

Sourced from the RNAGym collection of RNA variant scans (doi:10.1021/acssynbio.7b00057)
